Cited source for all entries: PubChem BioAssay (NCI)

# Test system: NCI-H522 lung
# MEASUREMENT_DESCRIPTION: NCI-60 one-dose screen, 48 h (100 = growth as untreated, 0 = no growth, -100 = all killed)
# CONDITIONS: 10 µM unless noted
# Protocol: Growth inhibition of the NCI-H522 human Non-Small Cell Lung tumor cell line is measured as a screen for anti-cancer activity. Cells are grown in 96 well plates and exposed to the test compound for 48 hours. Compounds are tested at a single concentration, which is 10^-5 M for most compounds. The reported endpoint is percent growth (GI% or GIPRCNT), where numbers from 0 - 100% represent growth inhibition, and numbers from -100% - 0 represent cell death. […]
This is part of a sample that, as a whole, favours compounds with a hit. Of some 83,000 tested, about 20% had one in any assay. The source made the active and inactive calls. How the source made its calls: active means growth percent below 10; inactive means the rest.

MOLECULE	growth
CCOC(=O)c1c(C)n2c(=O)cc(C)c3c(OC(C)=O)c(OC(C)=O)cc1c32	55.3% (inactive)
CCc1ccc(Cc2cnc(NC(=O)c3cc(C)oc3C)s2)cc1	19.6% (inactive)
C=C(C)[C@@H]1CC[C@]2(C#N)CC[C@]3(C)[C@H](CC[C@@H]4[C@@]5(C)CCCNC(C)(C)[C@@H]5CC[C@]43C)[C@@H]12	91.5% (inactive)
CCOC(=O)CC1CSC(N/N=C(/C)c2cccc(C(F)(F)F)c2)=N1 (stereo not drawn)	82.2% (inactive)
N#C/C(Sc1nc2sc3c(c2c(=O)n1Cc1ccccc1)CCCC3)=C1/SC=C(c2ccc(Cl)cc2)N1c1ccccc1	89.7% (inactive)
C/C(=N\NC(=O)c1ccc(C(C)(C)C)cc1)c1ccc(O)cc1O	27.5% (inactive)
Cc1c(C)c2c(c(C)c1OC(=O)CCC(=O)[O-])CCC(C)(CCCCCCCCCCC[P+](c1ccccc1)(c1ccccc1)c1ccccc1)O2 (stereo not drawn)	-25.9% (active)
Cc1ccc(Nc2oc(-c3ccccc3)nc2[P+](c2ccccc2)(c2ccccc2)c2ccccc2)cc1	-57.4% (active)
O=C(/C=C/c1ccc([N+](=O)[O-])cc1)c1cccc(Nc2nc(Nc3ccccc3)nc(Nc3ccccc3)n2)c1	78.7% (inactive)
CO[C@H]1/C=C/O[C@@]2(C)Oc3c(C)c(O)c4c(O)c(c5c(nc6cc(C)ccn65)c4c3C2=O)NC(=O)/C(C)=C\C=C\[C@H](C)[C@H](O)[C@@H](C)C(O)[C@@H](C)[C@H](OC(C)=O)[C@@H]1C (stereo partly drawn)	91.1% (inactive)
CC/C(=C(/c1ccc(Cl)cc1)c1ccc(OCCN(CC)CC)cc1)c1ccc(OC)cc1	66.6% (inactive)
O=C(Nc1ncc(Cc2ccccc2)s1)c1ccc2c(c1)OCCO2	-3.58% (active)
Nc1ncc(-c2ccc3ncnc(N4CCc5cc(F)c(Cl)cc54)c3c2)cc1C(F)(F)F	20.3% (inactive)
CC(C)(C)n1cc(-c2ccnc(NCCNS(=O)(=O)c3cccc4ccccc34)c2)c(-c2cccc(O)c2)n1	61.9% (inactive)
CC1=NN(c2cccc(Cl)c2)C(=O)/C1=C\C=C\c1ccccc1	34.4% (inactive)
O=C(N/N=C/c1ccccc1Cl)c1ccccc1Nc1ccnc(C(F)(F)F)c1	-20.5% (active)
CN(C)C(=O)OCc1ccc2c(Cl)cc(Cl)c(O)c2n1	65.1% (inactive)
Cc1nc2cccc(NCc3ccc(C(=O)NO)cc3)c2c(=O)n1-c1ccccc1	-2.46% (active)
